Test system: HeLa Kyoto;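 also: HeLa Kyoto cells arrested at G1/S by double thymidine block, proteins quantified by TMT10plex mass spectrometry in mild NP-40 versus SDS extracts, three biological replicates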
Protocol notes: solubility in G1/S (NP-40 vs SDS abundance) (log2 ratio); higher = more soluble
Settings: cell cycle stage: G1/S
Test readout: solubility in G1/S (log2)
In your answer, state the number alone without any accompanying words.

Some solved cases for reference:
MPAVLGFEGSANKIGVGVVRDGKVLANPRRTYVTPPGTGFLPGDTARHHRAVILDLLQEALTESGLTSQDIDCIAYTKGPGMGAPLVSVAVVARTVAQLWNKPLVGVNHCIGHIEMGRLITGATSPTVLYVSGGNTQVIAYSEHRYRIFGETIDIAVGNCLDRFARVLKISNDPSPGYNIEQMAKRGKKLVELPYTVKGMDVSFSGILSFIEDVAHRMLATGECTPEDLCFSLQETVFAMLVEITERAMAHCGSQEALIVGGVGCNVRLQEMMATMCQERGARLFATDERFCIDNGAMIAQAGWEMFRAGHRTPLSDSGVTQRYRTDEVEVTWRD [OSGEP] :: 0.0103
MDGEEQQPPHEANVEPVVPSEASEPVPRVLSGDPQNLSDVDAFNLLLEMKLKRRRQRPNLPRTVTQLVAEDGSRVYVVGTAHFSDDSKRDVVKTIREVQPDVVVVELCQYRVSMLKMDESTLLREAQELSLEKLQQAVRQNGLMSGLMQMLLLKVSAHITEQLGMAPGGEFREAFKEASKVPFCKFHLGDRPIPVTFKRAIAALSFWQKVRLAWGLCFLSDPISKDDVERCKQKDLLEQMMAEMIGEFPDLHRTIVSERDVYLTYMLRQAARRLELPRASDAEPRKCVPSVVVGVVGMGHVPGIEKNWSTDLNIQEIMTVPPPSVSGRVSRLAVKAAFFGLLGYSLYWMGRRTASLVLSLPAAQYCLQRVTEARHK [TRABD] :: 0.184

Turning now to a further sequence:
Recorded solubility in G1/S (log2) for MGLEDEQKMLTESGDPEEEEEEEEELVDPLTTVREQCEQLEKCVKARERLELCDERVSSRSHTEEDCTEELFDFLHARDHCVAHKLFNNLK [UQCRH] , please?
-0.528
